Tested on: ACHN cells
test-name: Cell viability assay (CCK-8)
Format: cell-based
test-conditions: Homo sapiens, 48 h, read-out: IC50 at 48 h

{"columns": ["structure-as-smiles", "reading-unit", "IC50"],
 "data": [
  ["CCCCCCCCCCCC1=C(O)C(=O)C=C(O)C1=O", "µM", 10.3]
]}

====

assayed-target: His‐ΔSHP2^K325A (Homo sapiens, UniProt Q06124, K325A)
Construct: His‐ΔSHP2, encompassing the peptide from amino acids 205–593 retaining PTP activity; His
Sequence (Q06124 205-593 K325A): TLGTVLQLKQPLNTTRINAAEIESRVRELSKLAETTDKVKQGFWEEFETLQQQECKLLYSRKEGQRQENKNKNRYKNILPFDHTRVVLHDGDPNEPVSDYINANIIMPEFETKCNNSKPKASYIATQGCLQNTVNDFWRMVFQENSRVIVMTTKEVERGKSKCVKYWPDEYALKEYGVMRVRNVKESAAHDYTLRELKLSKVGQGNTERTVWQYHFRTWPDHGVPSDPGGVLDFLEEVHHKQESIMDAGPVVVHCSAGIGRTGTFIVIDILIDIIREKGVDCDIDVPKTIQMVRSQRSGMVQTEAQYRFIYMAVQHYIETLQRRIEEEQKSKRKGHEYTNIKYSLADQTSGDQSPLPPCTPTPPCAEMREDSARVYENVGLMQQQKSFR
test-name: Isothermal titration calorimetry
test-conditions: read-out: KD value (ITC)
Description: The purified His‐ΔSHP2, His‐SHP2, or His‐ΔSHP2^K325A proteins were dialyzed overnight in dialysis buffer (20 mM HEPES, 0.15 M NaCl, 1 mM TCEP, 10% glycerol, pH 7.5). The protein concentration was determined using the BCA Protein Assay Kit, and the purity of the proteins was detected by Coomassie Brilliant Blue staining. ITC experiments were performed when the protein concentration was higher than 2 mg mL^−1 and the purity was greater than 90%. […]

{"columns": ["structure-as-smiles", "reading-unit", "Kd"],
 "data": [
  ["CCCCCCCCCCCC1=C(O)C(=O)C=C(O)C1=O", "nM", 346]
]}
